The measured values listed here are drawn from the NIST ThermoML archive (doi:10.1016/j.jct.2017.03.004).

Documented activity coefficient across a set of compounds
# assay: activity coefficient (dimensionless); of the first substance listed, at infinite dilution; xn = mol fraction of the nth substance listed
# measurementParameters: 328.15 K; 101.33 kPa; Liquid; Chromatography; x1 = 0
Number only, no unit.

Cc1ccc(C)cc1 [1,4-dimethylbenzene] + N#C[N-]C#N.OCCC[n+]1ccccc1 = 14.3
C1CCCC1 [cyclopentane] + N#C[N-]C#N.OCCC[n+]1ccccc1 = 57.4
Cc1ccccc1C [1,2-dimethylbenzene] + N#C[N-]C#N.OCCC[n+]1ccccc1 = 11.5

Input line: Provide only the value of recorded activity coefficient for CCCCCCCCC [nonane] + N#C[N-]C#N.OCCC[n+]1ccccc1
Output line: 1080

Input line: Provide only the value of recorded activity coefficient for CCO [ethanol] + N#C[N-]C#N.OCCC[n+]1ccccc1
Output line: 1.3

Input line: Provide only the value of recorded activity coefficient for CC1CCCCC1 [methylcyclohexane] + N#C[N-]C#N.OCCC[n+]1ccccc1
Output line: 170

Input line: Provide only the value of recorded activity coefficient for CCC(C)O (stereo not given) [butan-2-ol] + N#C[N-]C#N.OCCC[n+]1ccccc1
Output line: 3.18

Input line: Provide only the value of recorded activity coefficient for c1ccccc1 [benzene] + N#C[N-]C#N.OCCC[n+]1ccccc1
Output line: 5.18

Input line: Provide only the value of recorded activity coefficient for C=CCCCCCCCC [1-decene] + N#C[N-]C#N.OCCC[n+]1ccccc1
Output line: 829

Input line: Provide only the value of recorded activity coefficient for C=Cc1ccccc1 [styrene] + N#C[N-]C#N.OCCC[n+]1ccccc1
Output line: 7.23
